Tested on: SARS-CoV-2
Settings: 10 µM
Decision: % Inh. (% Inhibition of SARS-CoV-2) >= 90% yields Criterion met, all other cases yield Criterion not met.

Exam item: Reported % Inh. (% Inhibition of SARS-CoV-2) at or above 90%? CC(=O)[C@@]12O[C@](C)(c3ccccc3)O[C@@H]1C[C@H]1[C@@H]3CCC4=CC(=O)CC[C@]4(C)[C@H]3CC[C@@]12C [algestone-acetophenide]
Marked response: Criterion met

Exam item: Identify whether the reported % Inh. (% Inhibition of SARS-CoV-2) of the following compound is 90% or greater: Clc1ccc(N/N=C(\c2ccccc2)c2ccccn2)nc1 [JIB04 (NSC693627)]
Marked response: Criterion met

Exam item: Is % Inh. (% Inhibition of SARS-CoV-2) for CCN(CC)CCCCNc1ncc2cc(-c3c(Cl)cccc3Cl)c(NC(=O)NC(C)(C)C)nc2n1 [PD-161570] at or above 90%?
Marked response: Criterion met

Exam item: Hi, just wondering whether Cn1cc(-c2ccncc2)c(-c2ccc(OCc3ccc4ccccc4n3)cc2)n1 [PF-2545920] shows % Inh. (% Inhibition of SARS-CoV-2) of 90% or higher.
Marked response: Criterion not met
